Ref: PubChem BioAssay (NCI)

# Tested on: RXF 393 renal
# assayName: NCI-60 one-dose screen, 48 h (100 = growth as untreated, 0 = no growth, -100 = all killed)
# testSettings: 10 µM unless noted
This is part of a sample that, as a whole, favours compounds with a hit. Of some 83,000 tested, about 20% had one in any assay.
I'd be grateful if you could share measured growth for these entries.
Give bare numbers, in %.

molecule: Cc1nc2ccccc2c(=O)n1-c1cccc(OCc2cn(-c3cccc(O)c3)nn2)c1
assayTarget: RXF 393 renal
growth / %: 105

molecule: CCOc1ccc(N(C)c2ccc(/C=C/C3=[N+](C)c4ccccc4C3(C)C)cc2)cc1
assayTarget: RXF 393 renal
growth / %: 35.8

molecule: N=c1c2c(=O)n3c(nc2nc2sc4ccc(Cl)cc4n12)-c1ccccc1Sc1ccccc1-3
assayTarget: RXF 393 renal
growth / %: 38.2

molecule: O=C(CN1C(=O)NC(c2ccccc2)(c2ccccc2)C1=O)c1ccc(N2CCCC2)cc1
assayTarget: RXF 393 renal
growth / %: 81

molecule: CCCCCCCCCCCCCCCCC(=O)O.CCCCCCCCCCCCCCCCCC(=O)O.CCCCCCCCCCCCCCCCCC(=O)O.CCCCCCCCCCCCCCCCCC(=O)O.CCCCCCCCCCCCCCCCCC(=O)O.CO[CH-]OC12COC1CC(O)C1(C)C(O)C(OC(C)O)C3=C(C)C(OC(=O)C(O)C([NH-])c4ccccc4)CC(O)(C(OC(=O)c4ccccc4)C21)C3(C)C.[Cu+].[Zn].[Zn].[Zn].[Zn].[Zn] (stereo unspecified)
assayTarget: RXF 393 renal
growth / %: 24.3

molecule: NC(=O)c1c(Nc2ccccc2)nn2cc(-c3nc4ccccc4s3)c(N)nc12
assayTarget: RXF 393 renal
growth / %: 102

molecule: CC(=O)Nc1nc(C)c(C(=O)N/N=C/N2CCOCC2)s1
assayTarget: RXF 393 renal
growth / %: 119

molecule: COc1cc(-c2nn(-c3ccc(NC(=O)c4ccc(Cl)c(C(F)(F)F)c4)cc3)cc2-c2ccncc2)ccc1Cl
assayTarget: RXF 393 renal
growth / %: -56.3

Answer for every listed entry: what is its growth? The entries follow.
1. C=CCNCCC#N
2. C[C@@H](c1ccc2c(c1)[nH]c1ccc(Cl)cc12)c1nc2ccccc2[nH]1
3. O=C1c2ccccc2CCc2ccccc21
4. CC(C)OC(=O)c1ccc2n1CCCc1cnc(Nc3ccccc3)nc1-2

Reply:
109
105
101
91.2

Answer for every listed entry: what is its growth? The entries follow.
1. COc1cc2c(/C=C3\C(=O)Nc4ccc(Br)cc43)c(Cl)n(C)c2cc1C
2. CCOC(=O)CCCCCCCCC(=O)OCC
3. CCOc1ccc(Br)cc1/C=C(\C#N)c1ccc([N+](=O)[O-])cc1
4. Cc1cc2c(-c3nc4ccccc4n3C)c(O)c(O)cc2c(O)c1-c1c(C)cc2c(-c3nc4ccccc4n3C)c(O)c(O)cc2c1O

Reply:
1: -23.9; 2: 112; 3: 66.7; 4: 62.7

Answer for every listed entry: what is its growth? The entries follow.
1. COC(=O)CC(=O)C(=O)OC
2. CC(=O)O.[In]
3. CCC(C)CC(N)O (stereo unspecified)

Reply:
104
106
91.8

Answer for every listed entry: what is its growth? The entries follow.
1. COc1ccc(C(O)(c2ccccc2)C(C(=O)O)c2ccccc2)cc1 (stereo unspecified)
2. Cc1ccc(C(=O)Nc2ccc(CN3CCN(C)CC3)c(C(F)(F)F)c2)cc1C#Cc1cncc2ncccc12

Reply:
1. 121
2. -95.7

###

# Test system: LOX IMVI melanoma
# assayName: NCI-60 one-dose screen, 48 h (100 = growth as untreated, 0 = no growth, -100 = all killed)
# testSettings: 10 µM unless noted
Compounds without any hit were thinned out: in the full panel of roughly 83,000, 20% have a hit.
measure: growth (%)
Answers are plain numbers, in %.

Some solved entries appear below for comparison.
entrySmiles: CC(=O)CC(=O)OC/C=C(/C)CCC=C(C)C
unitOfMeasurement: %
growth: 97.7
--
entrySmiles: Oc1ccc2ccccc2c1/C=N\Nc1ccccn1
unitOfMeasurement: %
growth: -4.69

Attention now turns to another entry.
Task item: Quote LOX IMVI melanoma growth for entry COc1nc(OC)nc(-c2cc(C(=O)c3ccc(Br)cc3)n3cc(C)cc(C)c23)n1 .
Reply: 3.88

###

# Tested on: M14 melanoma
# assayName: NCI-60 one-dose screen, 48 h
# testSettings: 10 µM unless noted
The panel holds about 83,000 compounds, 20% with a hit somewhere; the sample as a whole holds those more often. Active and inactive are the calls of the source. How the source made its calls: active means growth percent below 10; inactive means the rest.
Write down the outcome that applies. Available outcomes: y (active), n (inactive)

compound: CCCCCCCCc1ccc(CCC(N)(CO)CO)cc1
assignedClass: n
--
compound: COc1ccc(/C=C2\CCCC3=C2N=C2SC=NN2C3c2ccc(OC)c(OC)c2)cc1OC (stereo not given)
assignedClass: n
--
compound: CCOC(=O)c1c(C)oc2ncnc(Nc3ccc(NC(=O)Nc4cccc(Cl)c4)cc3)c12
assignedClass: n
--
compound: COc1cc(OC)c(/C=C/c2ccc3ccccc3[n+]2C)c(OC)c1
assignedClass: n
--
compound: c1cc[c]([Bi]([c]2ccccc2)[c]2ccccc2)cc1
assignedClass: n

Task item: In this assay, the call recorded for CC(=O)OCC(=O)[C@@]1(O)[C@H](C)C[C@H]2[C@@H]3C=C(C)C4=Cc5c(cnn5-c5ccc(F)cc5)C[C@]4(C)[C@H]3[C@@H](O)C[C@@]21C was what?
Reply: n

Task item: In this assay, the call recorded for CCOC1=C(Cl)C(=O)C(OCC)=C(Cl)C1=O was what?
Reply: n

Task item: In this assay, the call recorded for O=S(=O)(Cc1cccc2c(CS(=O)(=O)c3ccc(Cl)cc3)cccc12)c1ccc(Cl)cc1 was what?
Reply: n

Task item: In this assay, the call recorded for Cc1ccc(CC(=O)O)c(C)c1 was what?
Reply: n

Task item: In this assay, the call recorded for N#CCc1ncc(-c2ccc(C(F)(F)F)cc2)c(NC2CCCCCC2)n1 was what?
Reply: n

Task item: In this assay, the call recorded for Cc1ccc(C(C)C)c(OCc2ccc(C(=O)N/N=C/c3cccc(O)c3O)cc2)c1 was what?
Reply: n

Task item: In this assay, the call recorded for CC(=O)N1CCN(CCNC(=O)n2cc(-c3ccncc3)c(-c3cc(O)cc(Cl)c3)n2)CC1 was what?
Reply: y

Task item: In this assay, the call recorded for Nc1cc2c(cc1Br)[nH]c(=O)c1ccccc12 was what?
Reply: n

Task item: In this assay, the call recorded for Cc1c(CN(C)C)cc(C(C)C)cc1C(C)C was what?
Reply: n

Task item: In this assay, the call recorded for CN1NC(c2ccccc2)NN(C)C1=O was what?
Reply: n

###

# Tested on: KM12 colon
# assayName: NCI-60 one-dose screen, 48 h
# testSettings: 10 µM unless noted
About 83,000 compounds went through this panel and 20% of them were active in at least one assay; those are over-represented in the sample as a whole. Active and inactive are the calls of the source. How the source made its calls: active means growth percent below 10; inactive means the rest.
Write down the outcome that applies. Available outcomes: active, inactive

compound: O=Nc1ccc(O)c2ccccc12
assignedClass: inactive

Task item: In this assay, the call recorded for CC(=O)Nc1nc(C)c(C(=O)NN)s1 was what?
Reply: inactive

Task item: In this assay, the call recorded for COc1cc(NC(C)CCCN)c2nccc(C)c2c1OC (configuration not stated) was what?
Reply: inactive

Task item: In this assay, the call recorded for Cc1c(Cc2ccccc2)c(=O)oc2c(C)c(OCc3n[nH]c(=S)o3)ccc12 was what?
Reply: inactive

Task item: In this assay, the call recorded for O=C(/C=C1\C(=O)N(Cc2ccc([N+](=O)[O-])cc2)c2ccccc21)c1ccc(OCCN2CCCC2)cc1 was what?
Reply: inactive

Task item: In this assay, the call recorded for COC1=CC(c2ccc[nH]2)=N/C1=C\c1[nH]c(C)c(C(=O)CCCCC(=O)NC(C)(C)C)c1C was what?
Reply: inactive

Task item: In this assay, the call recorded for CCCCCCCCCCCC(=O)OC(C)C(=O)Nc1ccccc1 (configuration not stated) was what?
Reply: inactive

Task item: In this assay, the call recorded for C[C@]12C=CC(=O)C=C1[C@@H](F)C[C@@H]1[C@@H]2[C@@H](O)C[C@@]2(C)[C@H]1CC[C@]2(O)C(=O)CO was what?
Reply: inactive

Task item: In this assay, the call recorded for O=C(O)CC1Cc2ccccc2C1C(=O)O (configuration not stated) was what?
Reply: inactive

Task item: In this assay, the call recorded for O=C(/C=C1\C(=O)N(Cc2ccc([N+](=O)[O-])cc2)c2ccccc21)c1ccc(OCCN2CCCCC2)cc1 was what?
Reply: active

Task item: In this assay, the call recorded for COc1cc(-c2nn(-c3ccc(NC(=O)c4ccc(Cl)c(Cl)c4)cc3)cc2-c2ccncc2)ccc1Cl was what?
Reply: inactive

Task item: In this assay, the call recorded for CC1=C[C@@H]2c3c(c(O)c(O)c4oc5cc(O)cc(O)c5c(=O)c34)[C@@H](c3cc(O)c(O)c4oc5cc(O)cc(O)c5c(=O)c34)[C@@H]2C(C)(C)C1 was what?
Reply: active
